# target.under.test: 3T3-L1 adipocytes (Mus musculus, UniProt P16092+Q99N32)
# Sequence (Q99N32 whole entry): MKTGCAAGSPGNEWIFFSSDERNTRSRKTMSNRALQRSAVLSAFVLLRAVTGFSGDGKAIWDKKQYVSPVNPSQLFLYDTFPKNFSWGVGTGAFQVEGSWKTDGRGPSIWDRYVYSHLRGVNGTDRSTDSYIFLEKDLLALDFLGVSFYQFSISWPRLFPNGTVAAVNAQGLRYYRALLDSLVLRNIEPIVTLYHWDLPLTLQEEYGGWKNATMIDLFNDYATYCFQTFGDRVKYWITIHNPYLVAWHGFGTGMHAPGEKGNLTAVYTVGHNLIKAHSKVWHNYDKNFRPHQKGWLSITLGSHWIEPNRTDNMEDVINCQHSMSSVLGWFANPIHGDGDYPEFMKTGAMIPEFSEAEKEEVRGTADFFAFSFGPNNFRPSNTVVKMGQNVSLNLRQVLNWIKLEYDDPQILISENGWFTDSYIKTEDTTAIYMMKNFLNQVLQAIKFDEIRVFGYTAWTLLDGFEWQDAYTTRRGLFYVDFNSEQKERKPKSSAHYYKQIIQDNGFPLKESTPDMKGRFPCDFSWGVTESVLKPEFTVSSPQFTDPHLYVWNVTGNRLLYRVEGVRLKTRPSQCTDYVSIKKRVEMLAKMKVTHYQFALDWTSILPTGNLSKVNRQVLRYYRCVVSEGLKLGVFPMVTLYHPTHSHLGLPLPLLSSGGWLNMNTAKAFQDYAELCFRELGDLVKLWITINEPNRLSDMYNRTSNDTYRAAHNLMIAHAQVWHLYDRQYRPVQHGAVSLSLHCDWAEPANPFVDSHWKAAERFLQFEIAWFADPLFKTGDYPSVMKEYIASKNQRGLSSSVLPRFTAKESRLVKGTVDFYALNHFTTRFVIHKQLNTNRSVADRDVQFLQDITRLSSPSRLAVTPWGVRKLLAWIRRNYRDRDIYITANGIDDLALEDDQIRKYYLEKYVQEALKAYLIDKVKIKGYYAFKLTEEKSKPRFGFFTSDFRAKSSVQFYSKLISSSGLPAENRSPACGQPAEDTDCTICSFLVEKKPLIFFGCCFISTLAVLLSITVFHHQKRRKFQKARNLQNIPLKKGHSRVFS
# Sequence (P16092 22-822): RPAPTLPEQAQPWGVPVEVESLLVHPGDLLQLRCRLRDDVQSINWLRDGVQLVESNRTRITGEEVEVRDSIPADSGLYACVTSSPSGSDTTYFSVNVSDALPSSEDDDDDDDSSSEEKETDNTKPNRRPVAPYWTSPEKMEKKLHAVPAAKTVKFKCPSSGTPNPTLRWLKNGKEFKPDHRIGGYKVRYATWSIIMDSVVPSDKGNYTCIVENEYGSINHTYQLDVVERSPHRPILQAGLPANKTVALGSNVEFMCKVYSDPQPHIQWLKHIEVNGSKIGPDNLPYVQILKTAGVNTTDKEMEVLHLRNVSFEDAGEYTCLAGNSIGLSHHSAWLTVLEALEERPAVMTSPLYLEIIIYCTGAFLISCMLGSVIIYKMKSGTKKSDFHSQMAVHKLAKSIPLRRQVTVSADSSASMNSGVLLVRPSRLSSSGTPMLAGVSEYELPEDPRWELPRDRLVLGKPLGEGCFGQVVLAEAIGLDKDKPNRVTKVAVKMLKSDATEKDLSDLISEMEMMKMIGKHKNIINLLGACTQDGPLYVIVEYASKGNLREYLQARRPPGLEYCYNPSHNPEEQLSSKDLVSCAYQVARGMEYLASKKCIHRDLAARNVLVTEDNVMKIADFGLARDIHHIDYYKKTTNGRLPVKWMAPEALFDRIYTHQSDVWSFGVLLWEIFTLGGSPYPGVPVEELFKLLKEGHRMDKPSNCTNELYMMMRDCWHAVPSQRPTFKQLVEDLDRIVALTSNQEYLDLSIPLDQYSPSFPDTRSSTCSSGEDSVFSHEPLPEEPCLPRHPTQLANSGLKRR
# method.summary: Glucose uptake in 3T3-L1 adipocytes
# Assay type: cell-based
# condition.context: stimulated 20 hours, 3H-deoxy-glucose
# Procedure: The C-terminal modified analogues were tested for their ability to increase glucose uptake in 3T3-L1 mouse adipocytes. […] The in vitro potency may also be determined in an assay with mouse 3T3-L1 adipocytes by testing the FGF21 analogues and derivatives for their ability to increase glucose uptake into adipocytes. […] The cells were used 7-9, days after initiation of differentiation. […] The EC50 and Emax of the FGF21 compound in question were calculated. […]
readout: pEC50
Lab note: report pEC50 as minus log10 of the concentration in molar units, number only.

[[record]]
molecule = "S{Beta-179}-2-aminoethylsulfanyl-Ala[Gln121, Leu168, Cys179]FGF21 (protein, N-terminal Ala; cysteamine disulfide on Cys179) AHPIPDSSPLLQFGGQVRQRYLYTDDAQQTEAHLEIREDGTVGGAADQSPESLLQLKALKPGVIQILGVKTSRFLCQRPDGALYGSLHFDPEACSFRELLLEDGYNVYQSEAHGLPLHLPGQKSPHRDPAPRGPARFLPLPGLPPALPEPPGILAPQPPDVGSSDPLSLVGPSQGRSPSCAS"
value_reported = 7.60


We now examine a further molecule.
Prompt line: Please list pEC50 recorded for the molecule S{Beta-180}-[2-[2-[[2-[2-[2-[[2-[2-[2-[[(4S)-4-carboxy-4-(17-carboxyheptadecanoyl-amino)butanoyl]amino]ethoxy]ethoxy]acetyl]amino]ethoxy]ethoxy]acetyl]amino]-ethylamino]-2-oxoethyl]-Ala[Gln121,Leu168, … (protein) HPIPDSSPLLQFGGQVRQRYLYTDDAQQTEAHLEIREDGTVGGAADQSPESLLQLKALKPGVIQILGVKTSRFLCQRPDGALYGSLHFDPEACSFRELLLEDGYNVYQSEAHGLPLHLPGQKSPHRDPAPRGPARFLPLPGLPPALPEPPGILAPQPPDVGSSDPLSLVGPSQGRSPSYC
Response line: 8.10
